- RUN DESCRIPTION: label from the status in PepcDB records
METRIC NAME: protein production

MEEHNANPLRFETNPYHNIVIKDRKVMELTGVKQIDSFDANEFLLETAQGWLMIQGKDLKLGKLDTERGDVIINGIIEALSYVSNKKGTAKETMMSKLFR : failed
MSVQKAVKSSHYEAESNMEQDIVRKAWVFKPSGLNFIWGGDSRYWVIPNEDRTPAELKKVSWLEVTGSYDKIEPGKTYRIGFKISFTADATGWDQAPVFMSAKIGKKGRTIWKRIKSVNNNFDKLKGGTGPVNIPDETDGRFEIFVSPKVAINQDTKLQFGLYEVWTGKWKTGLLIYEAFVEEV : failed

====

- RUN DESCRIPTION: label from the status in PepcDB records
METRIC NAME: protein production

Solved cases below.
MACGEFSLIARYFDRVRSSRLDVELGIGDDCALLNIPEKQTLAISTDTLVAGNHFLPDIDPADLAYKALAVNLSDLAAMGADPAWLTLALTLPDVDEAWLESFSDSLFDLLNYYDMQLIGGDTTRGPLSMTLGIHGFVPMGRALTRSGAKPGDWIYVTGTPGDSAAGLAILQNRLQVADAKDADYLIKRHLRPSPRILQGQALRDLANSAIDLSDGLISDLGHIVKASDCGARIDLALLPFSDALSRHVVPEQALRWALSGGEDYELCFTVPELNRGALDVALGHLGVPFTCIGQMTADIEGLCFIRDGEPVTLDWKGYDHFATP : not failed
MSKTPRIRIPPEVRQYVFQRDKFQCQSCGKTGLETNLTIDHIIPLARGGQNDISNLHTLCFDCNRCKTDKLDSRFRRHFEI : failed
MKTSIIILTCNNLRYSRRCIESIKKYTEKEAYEIIVVDNNSNDGTRNWLSKQKAIKKIYNNVNVGFPRGCNMGIKVACGSEVLLLNNDVVVTHNWLNNLRNCLYSSYEIGAVGPISNNCSNGQKINVRYDSIEDMHRFSKKYNISNKKKWTEVKRLIGFCFLIKRNVIRKVGLFDERFTPGNFEDDDYCIRMRKIGFRLMLCKDTFVHHYGSVSFKNTQYLKLLEVNKSKLEKKWGKSYDKLVLEHHHHHH : failed
MNYEIIDCIDSGTEYCPCHLAESGNCILCSQLNGKDFCDCVNWKGVCIYQEYTWNHNKAKKERSECICKIIKREEIDNNLIVLTIFIRKKLAEDLLYPGSYVFLRPTKSSRYYSSPISIMEASSDENIIKVIIEVKGIKTKSINELKEKDDIVLKGPYWNGVLGLKNIHSAKEGISLIIARGIGEAPIVPIMKKLYSNGNKVVVIADRGKFKANLIDKYLEEFSSETYNFNTLNKDGELPEDFKDFLLNFIRYNKVNLIHISGPNILTSKILDVVDEDIKISCSNNAKMCCGEGICGACSNIYDDDKMKRMCKVQIDPRYLFKGLRSI : failed
MAGFMKNAMSYLGMSDVAEGEDDFEDDVDTGETSFDSDHSVTPMPSSSASASTPSAPREQSNPFQGGRVSRITTIHPKTYDDAQMVGRAIRDGIPVVLNLTGVAEAVAYRIVDFSAGVVFGVRGSIERVTPRVFLLSPAQVNIKVEEPEDKGPAHDLFAD : failed

Now for a further sequence.
Recall and state the measured protein production for MKVFVIGAGLMGRGIAIAIASKHEVVLQDVSEKALEAAREQIPEELLSKIEFTTTLEKVKDCDIVMEAVFEDLNTKVEVLREVERLTNAPLCSNTSVISVDDIAERLDSPSRFLGVHWMNPPHVMPLVEIVISRFTDSKTVAFVEGFLRELGKEVVVCKGQSLVNRFNAAVLSEASRMIEEGVRAEDVDRVWKHHLGLLYTLFGPLGNLDYIGLDVAYYASLYLYKRFGDEKFKPPEWLQEKIKKGEVGVKAGKGIYEYGPKAYEERVERLKKLLRFLGLE .
not failed

====

- RUN DESCRIPTION: label from the status in PepcDB records
METRIC NAME: protein production

Solved cases below.
MQQKDAVPDTAKKLKAPLTGLKTEQKVTERRPVAVVVNNHPKARPQSGLSKADIVIEALAEGQITRFLAIFQSQMPETVGPVRSAREYFVTLSNGFDSIFVHHGWSPGAKKQLESGAADYMNGLDFDGSLFWRADFSKPPHNSYTSYDYIKKAAEQKGYKLKQETNPLLFQTSDAKPANESYNVRVDYGTNNVTNLVEYNYDKKAEFYTRSSDGVITTDRETGKPVAMQNIFIVEASHHIIDQDGRRDIDLESGGKGLLFQHGNVIETDWKQVNGRIVPVKDGKWLPFVPGKTWINIVPDLDAASISKGEGVLEHHHHHH : not failed
MVNTRTRMSAIVATLGLVGSLALATASADESRTSGSAAQIALTEVARAQNPTAGAAGPQDTVWIAERAGTVRVLGDDGLGEPVLDISDETTTDGERGLLGLAFDERFAHLYLSYTDLEGTSTVDEFAVQDGTVREDTRRTVLTQEQPESNHNGGAITFGPDGYLYIALGDGGGGGDPQGNGQKLDTLLGKLLRIDPQGGDPYAIPEDNPFADDPDARGEIWSYGLRNPWRFSFDAGSGDLLIGDVGQSDWEEIDWAPASSPGGENYGWSQMEGTHPFRGGTEPANHVPPIHEYDRTGLGCSVTGGYVYRGEAVPGLAGQYVYSDYCDGTLRSLEIEDGRVTGEHDLGVNGGEVVSFAQDGDGELYVLAIGGTVSRVDPA : failed
MAIKAGKVLRTATAAARKFQQKQFSASSSAFPEPPPVSPSSGVGAFLGIPKIIRSESDLLVSKYIRIAQGRLTKKGDYTEEKLKKMLSGEDRVGIGETMKLLEGRNTGLVSSKKPNSGRSKK : failed
MNIREIAAKCSKCGYCTTCPTYRIEGWETVSPRGKIQLALKYVDGEIDVDQKIVKDIFKCSVCGLCQEVCPVELPLIDFWEELRRTLVQKGLAPLSVHRKLREITFRNYNPYSGDQERRGDWADFEIKPAKTLYFAGCTASFRLQNLAKSTASVLEKLGIDFTIAGKNEYCCGSPFLRTGQKDIVERLFEKNYAYWQKMGIERIITSCPGCYRTISLDYPKIAEEKGYEFDIEVVHTVSILDKMGEFEKIDLKATYHDPCHLGRHMGMYEEPRNVIKRLGINFVEMERNREQALCCGAGGGLRSQFPEISFEIGRQRVLEAMETGAEYLITCCPFCEYHLSKSAEKLGNRIKVVDLVEIAEKLISP : failed
MRAISQYIAIFVITLTLSGCFFQNSDDQRWELAPQGTTSFALSRDARFALFFVKNDSIPEKNESQVKSGLHFWDLVENKELTFFGDQDQDKSTVSYIRISDNSRFAITATQTNFAVWDLGMGISEGLWSISDGIIRDVAIASNGQQVLLGLSNGKAIYINLATGRRLEFLAHREKVNSVALSANGKFALSGGNDYFAYLWDTETGQILRTFEHEKRVSRTALQRDGKYAFTADGGNEGFIWDLKTGEKITELSTLARQQVYSTARFSDDGQLLVTGSPSGTVNVWNTTSGKKLEQWRSEPLKDARPPTAVVYDVAIDKQQRVVSATSAGIAQAWLIE : failed
FIQIKPGYDYPIISALRAIISGNADAVPDEVGGVSKEKLVELAETMKNAKYGAVLYGLGVTQSRGRDRNVENAVKLIQLLNRHTRWVIWPMRGHYNVVGAGEVPAWEVGYQYAIDFSRGYPR : failed
MADVATKHPMEDEVKKTEASSLVGKLETDVEIKASADKFHHMFAGKPHHVSKASPGNIQGCDLHEGDWGTVGSIVFWNYVHDGEAKVAKERIEAVEPDKNLITFRVIEGDLMKEYKSFLLTIQVTPKPGGPGSIVHWHLEYEKISEEVAHPETLLQFCVEVSKEIDEHLLAEEEEVKTPETPSLVGKLETDVEIKASAEKFHHMFAGKPHHVSKASPGNIQGCDLHEGDWGQVGSIVFWNYVHDREAKVAKERIEAVEPNKNLITFRVIDGDLMKEYKSFLLTIQVTPKLGGPGSIVHWHLEYEKISEEVAHPETLLQFCVEVSKEIDEHLLAEE : failed
MERDTVLTATPTIDADLADATSCATPSRTAVSPLLPVLAALAAVVLWGGAFPAMKVAVQTLGTWQMMWARMVFALLLLVPLARRLAPARIERRDLPLLAGMALMQPCLYFLCESTALQLTTSSQAGVMAASMPLMMAVGGFLLGEKVSPRLWFGVGVSCIGVAWLTSSGGEGGGSAPDPFTGNLLELAAMACATGSSLCIGALISRGKGRWNALTLTGIQTLAGAVFFLPGAPGVIGGVADWSTEVLLAVVYLGGASSLGAFGLYNWALGHMPASRAGNFINLVPVAAIFFGWLLLGETLTTTQYLATGLVMGGVLMGTRAR : failed
MMNTTTLDRYFDLFDASRTDEKAFDDLISLFSDEITFVLNGQEQHGIDAWKQFVRMVFTANQDIKHMYAGWVPSETGDTMETRWAVCGKSADGSVFTQDGTDIARLNADGKIVYLANVPDDTAMFNQYND : not failed

Now for a further sequence.
Recall and state the measured protein production for MTRRGAQKASPSRAPGETALSTLYVTHPSAVEHVVPTGHPERPARMQAVERALEDERFAALVRCHAPRAEASVAELVHPASYVETIVAASPDEGFFQIDGDTLMSPGSLNTCLHAIGGSNHAVDAVMKGECANAFVAMRPPGHHAERDRAMGFCLFNHAAIAVRHAQKAFGATRVALVDFDVHHGNGSQDIFWADKTVMYASTHQMPLFPGSGATGERGDHDTIVNAPLKAFDGSELFREAFEARILPRLDAFAPDLIVISAGFDAHKLDPLANIQLDEADFGWATRRLMEVADRHAGGRVVSILEGGYSLDGLARSVAAHMDALMGR .
failed
